# targetOrTestSystem: Human CD33 S128N (human, UniProt P20138 18-259)
# Sequence (P20138 18-259 S128N): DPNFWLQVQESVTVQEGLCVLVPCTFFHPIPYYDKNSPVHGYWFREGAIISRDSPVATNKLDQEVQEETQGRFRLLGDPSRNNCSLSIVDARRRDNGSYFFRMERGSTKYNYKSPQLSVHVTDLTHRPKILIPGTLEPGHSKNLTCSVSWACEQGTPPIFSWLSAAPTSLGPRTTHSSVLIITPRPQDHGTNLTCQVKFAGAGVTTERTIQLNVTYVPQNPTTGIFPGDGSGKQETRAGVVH
# experimentNotes: SPR captured Fab
# maps each entry to its koff
Output spec: scalar in s⁻¹, unitless text.

**Q:** Tell me the measured koff of ADI-11839 Fab (Fab, V domains shown, Fab fragment; also called Ab28) VH: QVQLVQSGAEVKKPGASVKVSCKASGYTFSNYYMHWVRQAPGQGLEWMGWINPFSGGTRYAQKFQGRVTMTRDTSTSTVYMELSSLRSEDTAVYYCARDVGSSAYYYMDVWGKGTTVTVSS VL: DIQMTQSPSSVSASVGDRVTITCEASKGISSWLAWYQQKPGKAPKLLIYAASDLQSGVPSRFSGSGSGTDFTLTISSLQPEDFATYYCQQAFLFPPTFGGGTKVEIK , please.
**A:** 0.0284

**Q:** Same question, ADI-11826 Fab (Fab, V domains shown, Fab fragment; also called Ab26) VH: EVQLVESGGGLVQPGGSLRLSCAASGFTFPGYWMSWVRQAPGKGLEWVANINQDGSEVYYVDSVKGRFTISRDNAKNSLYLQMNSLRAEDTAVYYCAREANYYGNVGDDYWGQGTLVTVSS VL: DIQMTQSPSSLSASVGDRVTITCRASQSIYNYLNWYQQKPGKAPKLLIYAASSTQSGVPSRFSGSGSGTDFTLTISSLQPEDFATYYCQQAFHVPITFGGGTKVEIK this time
**A:** 0.00574

**Q:** Try ADI-11825 Fab (Fab, V domains shown, Fab fragment; also called Ab25) VH: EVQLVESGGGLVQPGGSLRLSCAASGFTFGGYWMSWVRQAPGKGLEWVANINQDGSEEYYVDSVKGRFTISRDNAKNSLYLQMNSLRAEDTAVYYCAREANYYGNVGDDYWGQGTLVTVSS VL: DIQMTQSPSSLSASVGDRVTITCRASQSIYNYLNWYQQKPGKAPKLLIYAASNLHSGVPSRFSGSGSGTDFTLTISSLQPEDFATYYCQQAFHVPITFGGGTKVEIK next.
**A:** 0.00649
